Assay: Drug uptake in FVB/NJ mouse brain at 25 mg/kg, ip measured after 30 mins post dose by LC-MS/MS analysis
Type: ADME, organism-based
Settings: read-out: Drug uptake
measured metric: concentration at 0.5 h (ng/g)

INSERT INTO assay_data (structure, measured_metric, assay_value) VALUES
  ('COc1cc(CCc2cc(NS(=O)(=O)c3ccccn3)c3ncccc3c2)cc(OC)c1', 'concentration at 0.5 h', 400);

---

Molecular target: Lactoylglutathione lyase (Homo sapiens)
Sequence (Q04760 whole entry): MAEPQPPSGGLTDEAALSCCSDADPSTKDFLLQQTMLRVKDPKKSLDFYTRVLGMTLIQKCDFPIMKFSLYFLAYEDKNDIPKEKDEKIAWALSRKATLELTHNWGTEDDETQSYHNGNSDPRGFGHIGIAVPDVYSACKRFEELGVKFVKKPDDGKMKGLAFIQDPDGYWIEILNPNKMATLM
pKi: −log10 of the molar value.
measured metric: pKi

INSERT INTO results (structure, assay_value) VALUES
  ('COC(=O)c1c(C)cc(Oc2cc(C)cc(O)c2O)cc1O', 6.64);

Source: ChEMBL document CHEMBL4368911
